# EXPERIMENTAL_TARGET: rat FPT (Rattus norvegicus, UniProt Q02293+Q04631)
# Construct: made in house; host or cells: Sf9 insect cells
# ASSAY_METHOD_TEXT: PFT Inhibitory Activity (protein farnesyl transferase)
# Type: biochemical
# CONDITION_SUMMARY: HEPES buffer pH 7.4 without 5 mM potassium phosphate; 30° C., 30 minutes; read-out: IC50 (μM) Hepes
Let's look at some compounds and their measured log10(IC50).
REPORTED_PROPERTY: log10(IC50) (log10 of the value in µM)

COMPOUND | log10(IC50)
O=c1cc(-c2ccccc2Cl)c2ccc(OC(Cn3ccnc3)c3ccccc3)cc2o1 (stereo not drawn) [Example 10] | -0.85
O=c1cc(-c2ccccc2)c2ccc(OC(Cn3ccnc3)c3ccccc3)cc2o1 (stereo not drawn) [Example 5] | -0.13
Cc1cccc(-c2cc(=O)oc3cc(OC(Cn4ccnc4)c4ccccc4)ccc23)c1 (stereo not drawn) [Example 7] | -0.30
Cn1c(=O)cc(-c2cccc(Cl)c2)c2ccc(OC(Cn3ccnc3)c3ccccc3)cc21 (stereo not drawn) [Example 2] | -0.15
O=c1cc(-c2ccc(Cl)cc2)c2ccc(OC(Cn3ccnc3)c3ccccc3)cc2o1 (stereo not drawn) [Example 9] | 0.26
Cn1c(=O)cc(-c2cccc(Cl)c2)c2cc(OC(Cn3ccnc3)c3ccccc3)ccc21 (stereo not drawn) [Example 1] | -1.19
Cc1ccc(-c2cc(=O)oc3cc(OC(Cn4ccnc4)c4ccccc4)ccc23)cc1 (stereo not drawn) [Example 11] | -0.17
C=CCc1c(OC(Cn2ccnc2)c2ccccc2)ccc2c(-c3ccccc3)cc(=O)oc12 (stereo not drawn) [Example 12] | -0.20
Cn1cncc1C(Oc1ccc2c(c1)c(-c1cccc(Cl)c1)cc(=O)n2C)c1ccccc1 (stereo not drawn) [Example 4] | 0.23
O=c1cc(-c2cccc(Cl)c2)c2ccc(OC(Cn3ccnc3)c3ccccc3)cc2o1 (stereo not drawn) [Example 6] | -0.54
Cn1c(=O)cc(-c2cccc(Cl)c2)c2cc(OCc3c[nH]cn3)ccc21 [Example 3] | 0.99
Cc1ccccc1-c1cc(=O)oc2cc(OC(Cn3ccnc3)c3ccccc3)ccc12 (stereo not drawn) [Example 8] | -0.01

---

# Test system: ras protein in ras-transformed cells
# ASSAY_METHOD_TEXT: Mobility Shift Assay (ras farnesylation in ras-transformed cells)
# Type: cell-based
# CONDITION_SUMMARY: 18-hour incubation, read-out: Mobility Shift MED
The molecules listed here are annotated with their minimal effective concentration.
REPORTED_PROPERTY: minimal effective concentration (µM)

MOLECULE | VALUE_UNITS | READOUT_QUALIFIER | QUANTITATIVE_READOUT
O=c1cc(-c2ccccc2Cl)c2ccc(OC(Cn3ccnc3)c3ccccc3)cc2o1 (stereo not shown) [Example 10] | µM | > | 0.2
C=CCc1c(OC(Cn2ccnc2)c2ccccc2)ccc2c(-c3ccccc3)cc(=O)oc12 (stereo not shown) [Example 12] | µM | > | 1
O=c1cc(-c2cccc(Cl)c2)c2ccc(OC(Cn3ccnc3)c3ccccc3)cc2o1 (stereo not shown) [Example 6] | µM | = | 1
O=c1cc(-c2ccccc2)c2ccc(OC(Cn3ccnc3)c3ccccc3)cc2o1 (stereo not shown) [Example 5] | µM | = | 0.2
Cn1c(=O)cc(-c2cccc(Cl)c2)c2cc(OC(Cn3ccnc3)c3ccccc3)ccc21 (stereo not shown) [Example 1] | µM | = | 1
Cc1ccc(-c2cc(=O)oc3cc(OC(Cn4ccnc4)c4ccccc4)ccc23)cc1 (stereo not shown) [Example 11] | µM | = | 1
Cn1c(=O)cc(-c2cccc(Cl)c2)c2ccc(OC(Cn3ccnc3)c3ccccc3)cc21 (stereo not shown) [Example 2] | µM | > | 1
